- Read-out: Monocyte Chemoattractant Protein-1 (MCP1), CCL2 (gene 6347)
- ASSAY PROCEDURE: BSK_4H_MCP1: BioMAP Diversity Plus: 4H Assay for Monocyte Chemoattractant Protein-1 (MCP1) Biomarker Activity (AID 2283018)
- CONDITION DETAILS: primary human endothelial cells (HUVEC); actives raise or lower the signal
Activity calls are given as the source filed them. Rule for the calls: active = hit-call score of the fitted dose curve at least 0.9, where 1 is the maximum; inactive = score below 0.9.
Allowed answers: active, inactive

Examples from the recorded data:
c1ccc2c(c1)c1cccc3ccc4cccc2c4c31	inactive
O=C(O)c1cn(-c2ccc(F)cc2)c2cc(N3CCNCC3)c(F)cc2c1=O	inactive
CC(=O)Nc1ccccc1O	inactive
O=P(c1ccccc1)(c1ccccc1)c1ccccc1	inactive
O=C=NC1CCC(CC2CCC(N=C=O)CC2)CC1 (configuration not stated)	inactive
O=C(O)C[C@H](O)C[C@H](O)/C=C/c1c(C2CC2)nc2ccccc2c1-c1ccc(F)cc1	active
C=CCOC(=O)CCC1CCCCC1	inactive
CCc1c(C)cc(N)c(CC)c1N	inactive

Record lookup: outcome of this test for "NCCNCCN" ? inactive

Record lookup: outcome of this test for "CNC[C@H](O)c1cccc(O)c1" ? inactive

Record lookup: outcome of this test for CCCCC(CC)COC(=O)/C=C\C(=O)OCC(CC)CCCC (configuration not stated) ? inactive

Record lookup: outcome of this test for "C[C@H]1C[C@@H]2[C@H]([C@@H](O)C[C@@]3(C)[C@H]2CC[C@]3(O)C(=O)CO)[C@@]2(C)C=CC(=O)C=C12" ? inactive

----------
- Read-out: Monocyte Chemoattractant Protein-1 (MCP1), CCL2 (gene 6347)
- ASSAY PROCEDURE: BSK_CASM3C_MCP1: BioMAP Diversity Plus: CASM3C Assay for Monocyte Chemoattractant Protein-1 (MCP1) Biomarker Activity (AID 2283046);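 note: MCP-1 level quantified by ELISA 24 h after dosing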
- CONDITION DETAILS: primary human coronary artery smooth muscle cells; actives raise or lower the signal
Calls of active or inactive are those of the source. Rule for the calls: active = hit-call score of the fitted dose curve at least 0.9, where 1 is the maximum; inactive = score below 0.9.
Allowed answers: t for active, f for inactive

Examples from the recorded data:
CC(C)c1ccc(C(C)C)cc1	t
CC(C)Oc1ccccc1O	f
N#Cc1ccc(CC(=NNC(=O)Nc2ccc(OC(F)(F)F)cc2)c2cccc(C(F)(F)F)c2)cc1	f
Nc1cc([N+](=O)[O-])ccc1O	f
Cc1ccc(O)c(C(C)(C)C)c1	t

Record lookup: outcome of this test for "CC(=O)Nc1ccccc1O" ? f

----------
- ASSAY PROCEDURE: ATG_NRF2_ARE_CIS: Attagene CIS-FACTORIAL HepG2 Assay for human Nuclear Factor Erythroid 2 Related Factor 2 (NFR2) response to Antioxidant Response Elements (ARE) (AID 2282992);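 note: reporter mRNA level measured by RT-PCR and capillary electrophoresis fluorescence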
- CONDITION DETAILS: HepG2 Attagene ARE/NRF2 reporter, transcription factor activity; actives raise or lower the signal
Active and inactive are the calls of the source. Rule for the calls: active = hit-call score of the fitted dose curve at least 0.9, where 1 is the maximum; inactive = score below 0.9.
Allowed answers: TRUE = active, FALSE = inactive

Record lookup: outcome of this test for BrC1CCC(Br)C(Br)CCC(Br)C(Br)CCC1Br (stereo not drawn) ? TRUE

----------
- Read-out: Interleukin-1 alpha (IL1a), IL1A (gene 3552)
- ASSAY PROCEDURE: BSK_BE3C_IL1a: BioMAP Diversity Plus: BE3C Assay for Interleukin-1 alpha (IL1a) Biomarker Activity (AID 2283016)
- CONDITION DETAILS: primary human bronchial epithelial cells; actives raise or lower the signal
Active and inactive are the calls of the source. How the source made its calls: active means hit-call score of the fitted dose curve at least 0.9, where 1 is the maximum; inactive means score below 0.9.
Allowed answers: active, inactive

Examples from the recorded data:
BrC1CCC(Br)C(Br)CCC(Br)C(Br)CCC1Br (stereo not given)	inactive
O=C(O)C[C@H](O)C[C@H](O)/C=C/c1c(C2CC2)nc2ccccc2c1-c1ccc(F)cc1	active
CC(=O)Nc1ccccc1O	inactive
O=C1OC2(c3cc(Br)c(O)c(Br)c3Oc3c2cc(Br)c(O)c3Br)c2c(Cl)c(Cl)c(Cl)c(Cl)c21	active

Now look at this one.
Record lookup: outcome of this test for "CC(=O)[C@H]1CC[C@H]2[C@@H]3CC=C4C[C@@H](O)CC[C@]4(C)[C@H]3CC[C@]12C" ? inactive

----------
- Read-out: Monokine induced gamma interferon (MIG), CXCL9 (gene 4283)
- ASSAY PROCEDURE: BSK_SAg_MIG: BioMAP Diversity Plus: SAg Assay for Monokine induced gamma interferon (MIG) Biomarker Activity (AID 2283092)
- CONDITION DETAILS: primary human HUVEC with PBMC; actives raise or lower the signal
Active and inactive are the calls of the source. Rule for the calls: active = hit-call score of the fitted dose curve at least 0.9, where 1 is the maximum; inactive = score below 0.9.
Allowed answers: active, inactive

CCc1c(C)cc(N)c(CC)c1N	inactive
NCCNCCN	inactive
CC(C)Oc1ccccc1O	inactive
O=[N+]([O-])c1cc(C(F)(F)F)ccc1Cl	inactive
CN(CCOc1ccc(CC2SC(=O)NC2=O)cc1)c1ccccn1 (stereo unspecified)	inactive
O=C(O)c1ccc([N+](=O)[O-])cc1	inactive

Record lookup: outcome of this test for "O=C1CCCCCCCCCCCCCCO1" ? inactive

Record lookup: outcome of this test for "Nc1cc([N+](=O)[O-])ccc1O" ? inactive

Record lookup: outcome of this test for "CC(C)c1ccc(C(C)C)cc1" ? inactive

Record lookup: outcome of this test for "Cc1ccc(O)c(C(C)(C)C)c1" ? active

Record lookup: outcome of this test for "O=C1OC2(c3cc(Br)c(O)c(Br)c3Oc3c2cc(Br)c(O)c3Br)c2c(Cl)c(Cl)c(Cl)c(Cl)c21" ? active

----------
- ASSAY PROCEDURE: ATG_Ets_CIS: Attagene CIS-FACTORIAL HepG2 Assay for human Erythroblast Transformation Specific (ETS) (AID 2282941)
- CONDITION DETAILS: HepG2 ETS cis-reporter transcription, actives raise or lower the signal
The source made the active and inactive calls. The calls were made as follows: active = hit-call score of the fitted dose curve at least 0.9, where 1 is the maximum; inactive = score below 0.9.
Allowed answers: yes (active), no (inactive)

CCOc1ccccc1OCC	no
CCC/C=C/C=O	no
OCCOCCOCCOCCO	no
Cc1ccc(Nc2ccc(O)c3c2C(=O)c2ccccc2C3=O)cc1	no
COc1ccnc(CS(=O)c2nc3cc(OC(F)F)ccc3[nH]2)c1OC (configuration not stated)	no
CCC(C)(O)CCC=C(C)C (configuration not stated)	no
Clc1nc(C(Cl)(Cl)Cl)c(Cl)c(Cl)c1Cl	yes
CC(C)(C)NC(N)=O	no
O=C(O)Cc1cccc2ccccc12	no
CCc1c(C)cc(N)c(CC)c1N	no

Record lookup: outcome of this test for "CC(=O)C(C)=O" ? no

Record lookup: outcome of this test for NC(=O)NC1NC(=O)NC1=O (configuration not stated) ? no

----------
- ASSAY PROCEDURE: ATG_BRE_CIS: Attagene CIS-FACTORIAL HepG2 Assay for human Bone Morphogenetic Protein (BMP) Response Element (BRE) (AID 2282933)
- CONDITION DETAILS: HepG2 BMP response element reporter, Attagene transcription factor profiling; actives raise or lower the signal
Activity calls are given as the source filed them. The calls were made as follows: active = hit-call score of the fitted dose curve at least 0.9, where 1 is the maximum; inactive = score below 0.9.
Allowed answers: active, inactive

Cc1cc(C2(c3cc(C)c(O)cc3C)OS(=O)(=O)c3ccccc32)c(C)cc1O	inactive
CC(C)c1ccc(C(C)C)cc1	inactive
CCCCC[Si](OCC)(OCC)OCC	inactive
CC1(C)[C@@H]2CC[C@@]1(C)[C@H](O)C2	inactive
CCCCCCCCCC=O	inactive
c1cc(C(c2ccc(OCC3CO3)cc2)c2ccc(OCC3CO3)cc2)ccc1OCC1CO1 (stereo not given)	inactive
C=O	inactive
Nc1cc(N)cc(C(=O)O)c1	inactive

Record lookup: outcome of this test for C=CC(C)(O)CCC=C(C)CCC=C(C)C (stereo not given) ? inactive

Record lookup: outcome of this test for "CCC(=O)OCc1ccccc1" ? inactive

Record lookup: outcome of this test for "CC(C)=CCO" ? inactive

Record lookup: outcome of this test for "CCCCNC(=O)NS(=O)(=O)c1ccc(C)cc1" ? inactive

Record lookup: outcome of this test for "NC(=O)c1ccccc1Cl" ? inactive

Record lookup: outcome of this test for "COCCOCCOCCOCCOCCO" ? inactive

----------
- Read-out: Vascular cell adhesion molecule 1 (VCAM1), VCAM1 (gene 7412)
- ASSAY PROCEDURE: BSK_4H_VCAM1: BioMAP Diversity Plus: 4H Assay for Vascular cell adhesion molecule 1 (VCAM1) Biomarker Activity (AID 2283033)
- CONDITION DETAILS: primary human endothelial cells (HUVEC); actives raise or lower the signal
Activity calls are given as the source filed them. How the source made its calls: active means hit-call score of the fitted dose curve at least 0.9, where 1 is the maximum; inactive means score below 0.9.
Allowed answers: active, inactive

Examples from the recorded data:
CC(C)c1ccc(C(C)C)cc1	active
Cc1ccc(Nc2ccc(O)c3c2C(=O)c2ccccc2C3=O)cc1	inactive

Record lookup: outcome of this test for "N#Cc1ccc(CC(=NNC(=O)Nc2ccc(OC(F)(F)F)cc2)c2cccc(C(F)(F)F)c2)cc1" ? inactive

----------
- Read-out: urokinase plasminogen activator (uPA), PLAU (gene 5328)
- ASSAY PROCEDURE: BSK_KF3CT_uPA: BioMAP Diversity Plus: KF3CT Assay for urokinase plasminogen activator (uPA) Biomarker Activity (AID 2283075)
- CONDITION DETAILS: primary human keratinocytes with fibroblasts; actives raise or lower the signal
Calls of active or inactive are those of the source. How the source made its calls: active means hit-call score of the fitted dose curve at least 0.9, where 1 is the maximum; inactive means score below 0.9.
Allowed answers: YES for active, NO for inactive

Examples from the recorded data:
OC1OC[C@@H](O)[C@H](O)[C@H]1O (stereo not given in full)	NO
O=C=NC1CCC(CC2CCC(N=C=O)CC2)CC1 (stereo not given)	YES
c1ccc2c(c1)c1cccc3ccc4cccc2c4c31	YES
CCCCC/C=C/C=C/C=O	YES

Now look at this one.
Record lookup: outcome of this test for "C#C[C@]1(O)CC[C@H]2[C@@H]3CCC4=Cc5oncc5C[C@]4(C)[C@H]3CC[C@@]21C" ? NO
